Origin of the recorded values: paper PMC7656562

Hi there, I'd appreciate the recorded Kb for every entry that follows.
Target: hCB1 (Homo sapiens)
Sequence (P21554 whole entry): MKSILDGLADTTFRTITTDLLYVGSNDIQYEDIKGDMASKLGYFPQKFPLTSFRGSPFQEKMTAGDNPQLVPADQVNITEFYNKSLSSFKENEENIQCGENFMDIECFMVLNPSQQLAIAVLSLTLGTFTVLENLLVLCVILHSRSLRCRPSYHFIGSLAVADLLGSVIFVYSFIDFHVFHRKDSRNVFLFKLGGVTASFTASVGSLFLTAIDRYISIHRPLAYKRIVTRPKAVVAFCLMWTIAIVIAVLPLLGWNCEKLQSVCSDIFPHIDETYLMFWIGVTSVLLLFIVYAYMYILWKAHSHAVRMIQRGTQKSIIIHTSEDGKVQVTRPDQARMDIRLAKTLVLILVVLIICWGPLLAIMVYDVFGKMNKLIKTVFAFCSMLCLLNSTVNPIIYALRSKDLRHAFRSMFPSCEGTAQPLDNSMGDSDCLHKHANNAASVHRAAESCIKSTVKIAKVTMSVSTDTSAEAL
Test: cell-based
Report only the number, with the unit nM understood.

**Query** Which Kb reading was recorded for the compound O=C(Nc1ccccc1F)NC1CCN(c2ncnc3c2nc(-c2ccccc2Cl)n3-c2ccc(F)cc2)CC1 [Compound 44] ?
**Result** 3800

**Query** Which Kb reading was recorded for the compound CC1(NC(=O)NC2CCC(F)(F)CC2)CCN(c2ncnc3c2nc(-c2ccccc2Cl)n3-c2ccc(Cl)cc2)CC1 [Compound 48] ?
**Result** 2

**Query** Which Kb reading was recorded for the compound CC1(NC(=O)Nc2ccc(F)cc2F)CCN(c2ncnc3c2nc(-c2ccccc2Cl)n3-c2ccc(Cl)cc2)CC1 [Compound 51] ?
**Result** 9

**Query** Which Kb reading was recorded for the compound O=C(Nc1ccc(F)c(F)c1)NC1CCN(c2ncnc3c2nc(-c2ccccc2Cl)n3-c2ccc(Cl)cc2)CC1 [Compound 34] ?
**Result** 290

**Query** Which Kb reading was recorded for the compound CC1(NC(=O)Nc2ccccc2F)CCN(c2ncnc3c2nc(-c2ccccc2Cl)n3-c2ccc(Cl)cc2)CC1 [Compound 50] ?
**Result** 1.6

**Query** Which Kb reading was recorded for the compound O=C(NCC1CCC(F)(F)CC1)NC1CCN(c2ncnc3c2nc(-c2ccccc2Cl)n3-c2ccc(Cl)cc2)CC1 [Compound 26] ?
**Result** 28

**Query** Which Kb reading was recorded for the compound CC1(NS(=O)(=O)NC2CCCCC2)CCN(c2ncnc3c2nc(-c2ccccc2Cl)n3-c2ccc(Cl)cc2)CC1 [Compound 54] ?
**Result** 17

**Query** Which Kb reading was recorded for the compound O=C(Nc1cccnc1C(F)(F)F)NC1CCN(c2ncnc3c2nc(-c2ccccc2Cl)n3-c2ccc(Cl)cc2)CC1 [Compound 36] ?
**Result** 160

**Query** Which Kb reading was recorded for the compound O=C(NC1CCN(c2ncnc3c2nc(-c2ccccc2Cl)n3-c2ccc(Cl)cc2)CC1)N1CCCC1 [Compound 16] ?
**Result** 190

**Query** Which Kb reading was recorded for the compound O=C(NC1CCN(c2ncnc3c2nc(-c2ccccc2Cl)n3-c2ccc(Cl)cc2)CC1)N1CCCCC1 [Compound 17] ?
**Result** 7

**Query** Which Kb reading was recorded for the compound O=C(NCC1CCCCC1)NC1CCN(c2ncnc3c2nc(-c2ccccc2Cl)n3-c2ccc(Cl)cc2)CC1 [Compound 25] ?
**Result** 5

**Query** Which Kb reading was recorded for the compound CC(C)(C)CNC(=O)NC1CCN(c2ncnc3c2nc(-c2ccccc2Cl)n3-c2ccc(Cl)cc2)CC1 [Compound 14] ?
**Result** 270

**Query** Which Kb reading was recorded for the compound CC1(NC(=O)Nc2ccc(OC(F)F)nc2)CCN(c2ncnc3c2nc(-c2ccccc2Cl)n3-c2ccc(Cl)cc2)CC1 [Compound 52] ?
**Result** 46

**Query** Which Kb reading was recorded for the compound O=C(NC1CCCCC1)NC1CCN(c2ncnc3c2nc(-c2ccccc2Cl)n3-c2ccc(Cl)cc2)CC1 [Compound 21] ?
**Result** 35
